Provenance of the data: ChEMBL document CHEMBL5380838

Below, each of the molecules is paired with its reported inhibition value.
# TARGET_OF_ASSAY: NACHT, LRR and PYD domains-containing protein 3 (Mus musculus) (UniProt Q8R4B8)
# Sequence (Q8R4B8 whole entry, the tested form may be a part): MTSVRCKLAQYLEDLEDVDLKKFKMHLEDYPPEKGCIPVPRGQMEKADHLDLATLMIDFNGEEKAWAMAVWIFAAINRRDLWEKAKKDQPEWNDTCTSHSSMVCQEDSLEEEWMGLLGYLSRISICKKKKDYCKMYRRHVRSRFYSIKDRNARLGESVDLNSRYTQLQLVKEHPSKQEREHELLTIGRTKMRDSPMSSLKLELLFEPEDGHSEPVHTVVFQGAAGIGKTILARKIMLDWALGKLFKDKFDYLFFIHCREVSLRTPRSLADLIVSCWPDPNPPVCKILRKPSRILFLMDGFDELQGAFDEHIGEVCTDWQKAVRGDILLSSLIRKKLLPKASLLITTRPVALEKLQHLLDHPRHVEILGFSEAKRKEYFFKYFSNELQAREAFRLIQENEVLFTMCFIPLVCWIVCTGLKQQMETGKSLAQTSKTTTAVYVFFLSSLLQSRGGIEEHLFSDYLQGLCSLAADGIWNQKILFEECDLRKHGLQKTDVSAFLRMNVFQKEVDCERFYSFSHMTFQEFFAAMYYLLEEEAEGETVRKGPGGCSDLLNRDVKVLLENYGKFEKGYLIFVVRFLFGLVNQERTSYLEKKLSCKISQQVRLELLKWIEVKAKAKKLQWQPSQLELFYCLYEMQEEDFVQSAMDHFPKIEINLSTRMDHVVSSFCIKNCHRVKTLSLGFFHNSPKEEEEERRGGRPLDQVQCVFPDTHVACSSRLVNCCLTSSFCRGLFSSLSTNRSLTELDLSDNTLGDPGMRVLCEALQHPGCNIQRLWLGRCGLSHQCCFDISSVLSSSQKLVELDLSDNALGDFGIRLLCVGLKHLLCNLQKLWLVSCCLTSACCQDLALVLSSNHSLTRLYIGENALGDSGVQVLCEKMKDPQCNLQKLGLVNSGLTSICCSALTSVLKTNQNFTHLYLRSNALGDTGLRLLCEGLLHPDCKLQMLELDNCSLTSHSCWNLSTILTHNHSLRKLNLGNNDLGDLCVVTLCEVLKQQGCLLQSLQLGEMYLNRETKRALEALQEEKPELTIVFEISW
# PROTOCOL_NOTES: Inhibition of NLRP3 inflammasome activation in LPS-treated mouse BMDM cells assessed as inhibition of Bz-ATP-stimulated IL-1beta release at 1 uM incubated for 30 mins followed by Bz-ATP stimulation for 30 mins by ELISA method relative to control
# Type: cell-based
# CONDITIONS_USED: time 60.0 min
QUANTITY_MEASURED: inhibition (%)

COMPOUND_STRUCTURE_STRING: O=C(Nc1c2c(cc3c1CCC3)CCC2)[C@@H](Cc1ccccc1)NS(=O)(=O)c1ccc([N+](=O)[O-])cc1
ASSAY_VALUE: 49.5
--
COMPOUND_STRUCTURE_STRING: C[C@H](NS(=O)(=O)c1ccc(N)cc1)C(=O)Nc1c2c(cc3c1CCC3)CCC2
ASSAY_VALUE: 17.3
--
COMPOUND_STRUCTURE_STRING: Nc1ccc(S(=O)(=O)N2CCCC[C@H]2C(=O)Nc2c3c(cc4c2CCC4)CCC3)cc1
ASSAY_VALUE: 25.4
--
COMPOUND_STRUCTURE_STRING: Nc1ccc(S(=O)(=O)N[C@H](Cc2ccccc2)C(=O)Nc2c3c(cc4c2CCC4)CCC3)cc1
ASSAY_VALUE: 46.4
--
COMPOUND_STRUCTURE_STRING: O=C(Nc1c2c(cc3c1CCC3)CCC2)[C@@H]1Cc2ccccc2CN1S(=O)(=O)c1ccc([N+](=O)[O-])cc1
ASSAY_VALUE: 53.7
--
COMPOUND_STRUCTURE_STRING: Nc1ccc(S(=O)(=O)N[C@H](C(=O)Nc2c3c(cc4c2CCC4)CCC3)c2ccccc2)cc1
ASSAY_VALUE: 16.1
--
COMPOUND_STRUCTURE_STRING: CC(C)[C@H](NS(=O)(=O)c1ccc(N)cc1)C(=O)Nc1c2c(cc3c1CCC3)CCC2
ASSAY_VALUE: 50.2
--
COMPOUND_STRUCTURE_STRING: NCCCC[C@H](NS(=O)(=O)c1ccc([N+](=O)[O-])cc1)C(=O)Nc1c2c(cc3c1CCC3)CCC2
ASSAY_VALUE: 47.5
